Test method notes: chemical genetic growth profiling, strain panel (AID 1159580);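 also: tested at 20 µM; growth read once vehicle control cultures reached saturation at 30 °C; 1 = growth at the plate median or of vehicle wells; lower values mean less growth of the strain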
Condition details: S. cerevisiae deletion strains, growth OD, locus YMR001C, strain CDC5, active compounds read low
The whole screen tested about 5,500 compounds, of which about 2,000 (36%) were called active. Roughly 18% stayed inconclusive and do not appear here. The list shows a part of the results.
Experimental endpoint: normalized growth
Note: the reply should be a number with no unit written.

Worked examples, 5 compounds total:
[[record]]
compound = "O=C(Nc1ccc(F)c(Cl)c1)c1ccccc1O"
experimental_endpoint = "normalized growth"
observed = 0.891

[[record]]
compound = "CC1C/C(=N/Nc2ccc(Br)cc2)c2cc(Cl)ccc2S1(=O)=O (stereo unspecified)"
experimental_endpoint = "normalized growth"
observed = 0.995

[[record]]
compound = "COc1ccc(CC2CCC(=NOC(=O)c3ccc(C(C)(C)C)cc3)CC2)cc1 (stereo unspecified)"
experimental_endpoint = "normalized growth"
observed = 0.986

[[record]]
compound = "O=[N+]([O-])c1ccc(-c2csc(Nc3ccncc3)n2)cc1"
experimental_endpoint = "normalized growth"
observed = 0.993

[[record]]
compound = "NNC(=O)c1csc(Cc2c(Cl)sc3ccc(Cl)cc23)n1"
experimental_endpoint = "normalized growth"
observed = 0.989


Next up:
For this compound ( `CSC(=NNc1ccccc1)NC(=O)c1c(Cl)cccc1Cl` ), measured normalized growth is 0.965
